# Test system: Schistosoma mansoni
# PROTOCOL: AntiSchistosoma mansoni activity Larva IC50 (uM)
# Type: functional, organism-based
rule met if IC50 is below 3 µM. rule not met if not; exact matches included in rule not met.

Consider the worked cases shown below.
COMPOUND	MEASURED ON	CATEGORY LABEL
c1ccc(Oc2ccc(-c3cncc(-c4ccc5[nH]ccc5c4)n3)cc2)cc1	Schistosoma mansoni	rule met
COc1ccc(-c2nnc3ccc(-c4cccc(C(C)C)c4)cn23)cc1OC	Schistosoma mansoni	rule not met
c1ccc(-c2[nH]c3ccccc3c2C(c2ccccn2)N2CCCC2)cc1 (configuration not stated)	Schistosoma mansoni	rule met

Proceed to the following item.
Record COc1ccc(-c2onc(C(F)(F)F)c2-c2ccc(Cl)cc2)c(O)c1 : is its IC50 strictly below 3 µM?
rule not met
